# tgt: T1, human Protein S (human, UniProt P07225 42-676)
# T1 construct: also called ProS; ProS1
# T1 sequence: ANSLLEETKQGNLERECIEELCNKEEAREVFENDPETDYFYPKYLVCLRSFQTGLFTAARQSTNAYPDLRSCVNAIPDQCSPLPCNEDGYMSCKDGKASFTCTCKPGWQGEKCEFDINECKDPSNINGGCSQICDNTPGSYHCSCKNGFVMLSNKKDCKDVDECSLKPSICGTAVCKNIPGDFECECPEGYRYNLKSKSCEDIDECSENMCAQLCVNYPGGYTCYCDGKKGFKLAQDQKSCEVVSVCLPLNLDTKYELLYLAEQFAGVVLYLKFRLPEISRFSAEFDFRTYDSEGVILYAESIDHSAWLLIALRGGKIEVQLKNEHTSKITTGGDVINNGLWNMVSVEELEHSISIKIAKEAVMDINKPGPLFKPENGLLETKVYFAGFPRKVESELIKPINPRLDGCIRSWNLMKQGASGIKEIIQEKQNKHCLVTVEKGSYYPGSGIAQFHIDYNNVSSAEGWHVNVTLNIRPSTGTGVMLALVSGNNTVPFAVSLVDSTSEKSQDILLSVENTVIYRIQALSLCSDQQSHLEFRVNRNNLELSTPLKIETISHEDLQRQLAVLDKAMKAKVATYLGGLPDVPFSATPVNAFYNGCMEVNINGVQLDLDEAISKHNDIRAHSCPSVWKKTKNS
# protocol_description: BLI Octet; antibody on anti-human Fc probe; Protein S 7.81-500 nM; 4 mM CaCl2
# Method: Binding characteristics of the Protein S antibodies were also further characterized using Octet. Using the Octet System (Sartorius), the binding of each antibody to both human and cynomolgus monkey (“cyno” in Table 10) Protein S was determined. […] Next, the probes were placed into buffer and the dissociation rates were measured.
outcome_measure: koff (s⁻¹)
Numbers only, in s⁻¹.

Please review the entries below; each comes with its answer.
Antibody 4 (antibody, V domains shown, Same variable regions as Antibody 16) VH: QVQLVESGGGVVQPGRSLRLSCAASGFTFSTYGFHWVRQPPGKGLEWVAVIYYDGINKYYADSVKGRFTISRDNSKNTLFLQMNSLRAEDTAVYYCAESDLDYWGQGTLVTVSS VL: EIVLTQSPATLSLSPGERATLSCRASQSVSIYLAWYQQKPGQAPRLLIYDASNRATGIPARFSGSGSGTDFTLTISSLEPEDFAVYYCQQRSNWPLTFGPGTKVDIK    0.000708
Antibody 3 (antibody, V domains shown, Same variable regions as Antibody 15) VH: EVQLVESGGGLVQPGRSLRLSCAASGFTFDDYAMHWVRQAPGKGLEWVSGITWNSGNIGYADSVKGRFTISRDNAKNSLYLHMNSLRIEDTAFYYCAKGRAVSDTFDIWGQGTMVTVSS VL: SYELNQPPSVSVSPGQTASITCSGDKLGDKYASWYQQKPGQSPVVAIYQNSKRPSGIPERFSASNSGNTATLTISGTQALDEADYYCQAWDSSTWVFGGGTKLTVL    8.86e-06

Each of the following entries comes with a recorded value; kindly state koff for each.
1. Antibody 8 (antibody, V domains shown, Same variable regions as Antibody 20) VH: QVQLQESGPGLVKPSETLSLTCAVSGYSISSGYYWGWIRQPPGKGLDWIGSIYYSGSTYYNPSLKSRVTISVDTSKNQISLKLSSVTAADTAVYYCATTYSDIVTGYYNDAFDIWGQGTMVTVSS VL: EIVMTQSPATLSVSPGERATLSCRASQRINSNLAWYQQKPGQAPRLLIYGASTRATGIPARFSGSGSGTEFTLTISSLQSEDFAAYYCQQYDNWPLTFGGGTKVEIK
2. Antibody 39 (antibody, V domains shown, Same variable regions as Antibody 40) VH: EVQLVESGGGLVQPGGSLRLSCAASGFTFSSYSMNWVRQAPGKGLEWVAYISSSTRTIFYADSVKGRFTISRDNAKNSLYLQMNSLRDEDTAFYYCARERSAFDYWGQGTLVTVSS VL: SYVLTQPPSVSVAPGQTARITCGGDNIGGKSVHWYQQKPGQAPVMVVYDDSDRPSGIPERFAGSNSGNTATLAISRVEAGDEADYYCQVWEITSDHPAFGGGTRLTVL

Output:
6.7e-05
5.84e-05
